Values were extracted from PubChem BioAssay (NCI).

- System: SW-620 colon
- test-protocol: NCI tumour cell line growth inhibition, 48 h
quantity-kind: TGI

* COc1ccc(C2C3=C(COC3=O)OC(C)(C)Oc3cc4c(cc32)OCO4)cc1OC (configuration not stated) | > 100 µM
* O=C1Nc2ccccc2/C1=C/c1cn(CC(O)Cn2cc(/C=C3\C(=O)Nc4ccccc43)c3ccccc32)c2ccccc12 (configuration not stated) | 3.48 µM
* COc1ccc2oc(C(=O)N3CC(CCl)c4ccc(N)cc43)cc2c1 (configuration not stated) | 31.5 µM
* Cc1ccc(/S(Cc2ccccc2)=N\S(=O)(=O)c2ccc(C)cc2)cc1 (configuration not stated) | > 100 µM
* Nc1c2cc3ccc2nc2ccc(cc12)OCCOCCOCCOCCOCCOCCO3 | > 10 µM
* CCN(CC)CCN1C(=O)C(=O)N(c2cccc3ccccc23)C1=O | > 10 µM
* CC1=C(C(=O)Nc2ccccc2)C(c2cc(Cl)cc(Cl)c2)C(C(=O)Nc2ccccc2)=C(C)N1 | 25.9 µM
* CC1(C)OC2OC(COC(=O)c3ccc(C#N)cc3)C3OC(C)(C)OC3C2O1 (configuration not stated) | > 75 µM
* O=C(Nc1ccc2cc3ccccc3cc2c1)c1cc2c(cc1Cl)Sc1nccn1S2(=O)=O | > 100 µM
* Cn1cc(C2=C(c3ccccc3C(F)(F)F)C(=O)NC2=O)c2ccccc21 | > 25 µM
* COc1cc(C2c3cc4c(cc3[C@@H](N(C)c3ccc(N(C)C)cc3)C3COC(=O)C23)OCO4)cc(OC)c1O (some centres not stated) | 21.8 µM
* CN(C)c1ccc(/C=C(\NC(=O)c2ccccc2)C(=O)NC(Cc2c[nH]c3ccccc23)C(=O)O)cc1 (configuration not stated) | > 100 µM
* CCOC(=O)C#Cc1c(C(=O)OCC)nnn1[C@@H]1O[C@H](CO)[C@H]2OC3(CCCCC3)O[C@H]21 | 3.64 µM
* CCc1nc2cc(/C=C/C(=O)NO)ccc2c(=O)n1CCc1ccc(OC)cc1 | 13 µM
* [N-]=[N+]=Nc1ccc2c(c1)Sc1ccccc1N2CCCCN1CCN(C(=O)CCNC(=O)Cc2ccc(C(=O)c3ccccc3)cc2)CC1 | > 39.3 µM
* O=C1/C(=C/c2ccccc2)CCCc2ccccc21 | 32.9 µM
* O=C(NCc1ccc2ccc3cccnc3c2n1)c1ccc[n+](Cc2ccccc2)c1 | > 100 µM
* O=c1[nH]nc(-c2ccc(F)cc2)cc1-c1ccccc1 | > 100 µM
* Cc1ccccc1N=Nc1c(-c2ccccc2)nn(C(=O)CC(=O)Nc2cccc(Cl)c2)c1-c1ccccc1 | > 39.2 µM
* COc1ccc(-c2nn3ncccc3c2-c2ccnc(Nc3ccc4c(c3)OCCO4)n2)cc1 | > 25 µM
* COC[C@H]1C(=O)NCC(=O)N2N=CCC[C@H]2C(=O)N(O)[C@H](C)C(=O)O[C@@H](C(C)C)[C@H](NC(=O)[C@@](C)(O)[C@]2(O)CC[C@@H](CC(C)C)[C@H](C)O2)C(=O)N2NCCC[C@@H]2C(=O)N1O | 0.03 µM
* NC(CSC(c1ccccc1)(c1ccccc1)c1ccc(F)cc1)C(=O)O (configuration not stated) | > 100 µM
* Cc1cc2c(cc1CO)N1Cc3cc(C)c(CO)cc3N(C2)C1 | > 100 µM
* CCC[CH2][Sn]([CH2]CCC)([O]C(=O)c1cccc(F)c1F)[O]C(=O)c1cccc(F)c1F | 1.67 µM
* COc1ccc2c(c1)[n+](=O)c(C(=O)CC(=O)C(=O)Nc1cccc(C)c1C)c(C)n2[O-] | > 100 µM
* C=C(C)C(=O)OC1C[C@H](COC(C)=O)C2CC=C(CO)C2C2OC(=O)C(=C)[C@H]12 (some centres not stated) | 40 µM
* COc1cccc2nc3c(C(=O)NCCN(C)C)cccc3nc12 | > 57.7 µM
